Entries and their Protein Binding (%)
# MEASUREMENT TARGET: plasma protein
# TEST: plasma ultrafiltration (Centrifree), LC-MS/MS; peptide 10.0 uM
Starred links: 1 amine or outer side, 2 acyl side, 3 side chain; linkers in the order of their positions; H or OH if unused. Positions of bridges follow the written chain, without caps; N, C: chain ends. Non-standard residues stand in square brackets, D forms with d. dTyr(O-Me) = O-methyl-D-tyrosine, COc1ccc(C[C@@H](N[*:1])C(=O)[*:2])cc1; dPhe(4-Br) = N[C@H](Cc1ccc(Br)cc1)C(=O)O; dPhe(4-F) = N[C@H](Cc1ccc(F)cc1)C(=O)O; Cit = NC(=O)NCCC[C@H](N)C(=O)O; Nle = CCCC[C@H](N)C(=O)O; Aib = CC(C)(N)C(=O)O
REPORTED METRIC: Protein Binding (%)

BINDER	MEASURED
Ac-R[Nle]CH[dF]RWC-NH2 (disulfide 3-8; SMILES CCCC[C@H](NC(=O)[C@H](CCCNC(=N)N)NC(C)=O)C(=O)N[C@H]1CSSC[C@@H](C(N)=O)NC(=O)[C@H](Cc2c[nH]c3ccccc23)NC(=O)[C@H](CCCNC(=N)N)NC(=O)[C@@H](Cc2ccccc2)NC(=O)[C@H](Cc2c[nH]cn2)NC1=O) [CTX-1227]	54
Ac-RC[dA]R[dPhe(4-F)]R[dW]C-NH2 (disulfide 2-8) [CTX-1236]	51
Ac-RC[dA]R[dF]RWC-NH2 (disulfide 2-8; SMILES CC(=O)N[C@@H](CCCNC(=N)N)C(=O)N[C@H]1CSSC[C@@H](C(N)=O)NC(=O)[C@H](Cc2c[nH]c3ccccc23)NC(=O)[C@H](CCCNC(=N)N)NC(=O)[C@@H](Cc2ccccc2)NC(=O)[C@H](CCCNC(=N)N)NC(=O)[C@@H](C)NC1=O) [CTX-1211]	61
Ac-R[Nle]CR[dF]RWC-NH2 (disulfide 3-8; SMILES CCCC[C@H](NC(=O)[C@H](CCCNC(=N)N)NC(C)=O)C(=O)N[C@H]1CSSC[C@@H](C(N)=O)NC(=O)[C@H](Cc2c[nH]c3ccccc23)NC(=O)[C@H](CCCNC(=N)N)NC(=O)[C@@H](Cc2ccccc2)NC(=O)[C@H](CCCNC(=N)N)NC1=O) [CTX-1228]	39
Ac-RC[Aib]R[dPhe(4-Br)]R[dW]C-NH2 (disulfide 2-8; SMILES CC(=O)N[C@@H](CCCNC(=N)N)C(=O)N[C@H]1CSSC[C@@H](C(N)=O)NC(=O)[C@@H](Cc2c[nH]c3ccccc23)NC(=O)[C@H](CCCNC(=N)N)NC(=O)[C@@H](Cc2ccc(Br)cc2)NC(=O)[C@H](CCCNC(=N)N)NC(=O)C(C)(C)NC1=O) [CTX-1246]	43
Ac-RC[dA]R[dTyr(O-Me)]R[dW]C-NH2 (disulfide 2-8; SMILES COc1ccc(C[C@H]2NC(=O)[C@H](CCCNC(=N)N)NC(=O)[C@@H](C)NC(=O)[C@@H](NC(=O)[C@H](CCCNC(=N)N)NC(C)=O)CSSC[C@@H](C(N)=O)NC(=O)[C@@H](Cc3c[nH]c4ccccc34)NC(=O)[C@H](CCCNC(=N)N)NC2=O)cc1) [CTX-1238]	41
Ac-RCAR[dF]R[dW]C-NH2 (disulfide 2-8) [CTX-1268]	62
Ac-RC[dA][Cit][dF]RWC-NH2 (disulfide 2-8) [CTX-1285]	41
Ac-RC[dA]R[dPhe(4-Br)]RFC-NH2 (disulfide 2-8; SMILES CC(=O)N[C@@H](CCCNC(=N)N)C(=O)N[C@H]1CSSC[C@@H](C(N)=O)NC(=O)[C@H](Cc2ccccc2)NC(=O)[C@H](CCCNC(=N)N)NC(=O)[C@@H](Cc2ccc(Br)cc2)NC(=O)[C@H](CCCNC(=N)N)NC(=O)[C@@H](C)NC1=O) [CTX-1258]	50
